# SPOT peptide array binding signal intensity per record follows
- targetDesc: SpLsb4
- testMethodNotes: SPOT peptide array binding signal intensity (averaged, normalized) (arbitrary units (background-subtracted, floor 0; scale differs between SH3 domains)); higher = stronger binding of the SH3 domain to the peptide
Lab note: jot down the number only; don't add units.

Below, 3 binders whose answers are already recorded.
RVRKTHVPASKRPSG
224
RRLRDKYKLPIVDAD
44
QTMRQAPKRPDADVA
990

Ask | Could you share which SPOT peptide array binding signal intensity value was measured for RRSKSLPTTPGIRSG ?
Reply | 574

Ask | Param item = GSKSGPPPRPKKPST ; retrieve measured SPOT peptide array binding signal intensity.
Reply | 332

Ask | Please report the recorded SPOT peptide array binding signal intensity for KRKRRLPVSEDTNTK .
Reply | 268

Ask | State the recorded SPOT peptide array binding signal intensity for this entry: VAPPPLPNRQLPNLD
Reply | 5980
